For each record, write down the corresponding pIC50.
- ASSAYED_SYSTEM: CYP2C8 (Homo sapiens (Human))
- Sequence (P10632 whole entry): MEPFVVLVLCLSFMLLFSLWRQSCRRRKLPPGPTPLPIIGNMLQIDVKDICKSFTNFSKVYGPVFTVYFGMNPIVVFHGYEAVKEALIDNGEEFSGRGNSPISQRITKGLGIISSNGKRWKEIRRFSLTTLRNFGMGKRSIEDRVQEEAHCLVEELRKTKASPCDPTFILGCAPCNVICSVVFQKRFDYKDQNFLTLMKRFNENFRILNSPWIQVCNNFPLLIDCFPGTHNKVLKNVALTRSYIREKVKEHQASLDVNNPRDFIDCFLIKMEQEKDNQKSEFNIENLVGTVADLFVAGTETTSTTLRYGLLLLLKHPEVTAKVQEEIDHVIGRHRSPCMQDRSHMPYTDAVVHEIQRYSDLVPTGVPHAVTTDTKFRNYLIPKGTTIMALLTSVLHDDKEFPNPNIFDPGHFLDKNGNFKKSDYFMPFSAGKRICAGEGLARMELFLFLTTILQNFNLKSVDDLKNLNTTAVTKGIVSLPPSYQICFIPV
- ASSAY_DETAILS: CYP inhibition in human liver microsomes
- CONDITION_PARAMETERS: read-out: CYP-2C8, metabolite desethylamodiaquine
Just the number, please; pIC50 means minus log10 of the concentration in mol/L.

Lab note: measured pIC50 of C[C@H](c1ccc(C(F)(F)F)cc1C(F)(F)F)n1cc(NC(=O)c2nnc(-c3ccccn3)s2)cn1 was 4.48

The reported pIC50 of the compound C[C@H](c1ccc(C(F)(F)F)cc1C(F)(F)F)n1cc(NC(=O)c2cc(-c3ccccn3)no2)cn1 was 5.94

Reported pIC50 of C[C@H](c1ccc(C(F)(F)F)cc1C(F)(F)F)n1cc(NC(=O)c2cc(-c3cnccn3)on2)cn1 : 4.36

# pIC50 (compound: C[C@H](c1ccc(C(F)(F)F)cc1C(F)(F)F)n1cc(NC(=O)c2cn(-c3ccccn3)nn2)cn1 ) is 4.52

Short answer for Cc1nn([C@H](C)c2ccc(C(F)(F)F)cc2C(F)(F)F)cc1NC(=O)c1cc(-c2ccccn2)on1 : pIC50 was 6.00

Where do the numbers come from? From patent US20240124434A1.
